Origin of measurements: the supplement of paper PMC12455559

Test: purified protein yield per well (BCA); higher = higher soluble expression
value type: purified protein yield per well

>>> obs_value("QTSAPTSASLNATAGPLSVSTASVLVPVGFGGGTIYYPTVAGQYGVIAISPGFTATQSSIAWLGRRIATHGFVVITLNTNTTLDQPDSRATQLLAALRYVTNSSGTAVRSRIDATRLAVAGHSMGGGGSLIAARDNPTLKASYPLTPWNISTNFSTVRVPTLIIGADGDTIAPVASHARPFYASLPSTTFKAYGELNNATHFTPNSTSTPIGRYGVAWFKRFLDGDTRYSPFLCGAQHTAYATALVFDRYNQNCPY [ESM141]")
"< 25 µg"
>>> obs_value("AANPYERGPAPTDAVLEASRGPFATTSYSVSGLSVTGFGGGVVYYPTSTSEGTFGAIAISPGYTATWSSLSWLGPRIASHGFVVIGIETNTLLDQPDSRGRQLLAALDYLVQRSSVRGRIDAGRLAVAGHSMGGGGTLEAAAARPSLQAAVPLAPWNLDKTWSGVTVPTLIVGGESDSVAPVASHSVPFYNSIPASSEKAYLELNGASHFFPQSVNTPTAKQMVAWLKRFVDNDTRYEQFLCPGPSGLAIEEYRNTCPSS [TEP018]")
"65.6 µg"
>>> obs_value("QSSNPYQRGPAPTERSIEASRGPFAVAQTTVSRLSATGFGGGTIYYPTDTSQGRFGGVAISPGFTALQSSIAWLGPRIASQGFIVFTIDTITTLDQPAQRGDQLLAALDYLVQRSPAAVRDRLDPTRLAVMGHSMGGGGTLEAAKKRPSLKAAIPLTGWNLDTIWNDLRVPTLVVGAQLDLIAPILTFSLPFYNTIPASTEKVYLELAGASHFAPNLPDTNIAKYSIAWLKRWVDNDTRYTQFLCPGPRFELAISNYMSSCPM [DP056]")
"36 µg"
